// values below are reported self-cleavage kobs at 2500 uM GlcN6P
B1: glmS ribozyme (parent)
chain: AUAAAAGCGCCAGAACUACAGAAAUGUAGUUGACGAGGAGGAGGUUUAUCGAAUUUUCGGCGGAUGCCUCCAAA

# Variants of: B1
# MEASUREMENT_NOTES: self-cleavage kobs at 2500 uM GlcN6P; higher = faster cleavage; RNA array
# RUN_PARAMETERS: with glucosamine-6-phosphate
Variants at the floor of the assay were thinned out.

Examples with answers:
VARIANT_IDENTIFIER: G44C C68A
MEASUREMENT_TYPE: self-cleavage kobs at 2500 uM GlcN6P
OBSERVED_RESULT: < 1e-05 s⁻¹
--
VARIANT_IDENTIFIER: A14G G29A C70G
MEASUREMENT_TYPE: self-cleavage kobs at 2500 uM GlcN6P
OBSERVED_RESULT: 0.000126 s⁻¹
--
VARIANT_IDENTIFIER: G32U G59C
MEASUREMENT_TYPE: self-cleavage kobs at 2500 uM GlcN6P
OBSERVED_RESULT: < 1e-05 s⁻¹
--
VARIANT_IDENTIFIER: C10U U65A
MEASUREMENT_TYPE: self-cleavage kobs at 2500 uM GlcN6P
OBSERVED_RESULT: < 1e-05 s⁻¹
--
VARIANT_IDENTIFIER: A15G A64C
MEASUREMENT_TYPE: self-cleavage kobs at 2500 uM GlcN6P
OBSERVED_RESULT: 9.56e-05 s⁻¹

response.value for A14G A15U U30G (field: self-cleavage kobs at 2500 uM GlcN6P) = 0.0232 s⁻¹

self-cleavage kobs at 2500 uM GlcN6P in this record for U31C A48G G63C C67U : < 1e-05 s⁻¹

// field: self-cleavage kobs at 2500 uM GlcN6P; key: C16A G32U G43U C61G ; value = < 1e-05 s⁻¹

Value of self-cleavage kobs at 2500 uM GlcN6P reported for the variant G7U U49A is < 1e-05 s⁻¹

Per the records, this variant ( C8A A14G G29A A36U ) has self-cleavage kobs at 2500 uM GlcN6P equal to < 1e-05 s⁻¹

Per the records, this variant ( U49C C50U G51A ) has self-cleavage kobs at 2500 uM GlcN6P equal to < 1e-05 s⁻¹
